B1: H2-Kb / H6 (parent)
chain 1: AQKVTQTQTSISVMEKTTVTMDCVYETQDSSYFLFWYKQTASGEIVFLIRQDSYKKENATVGHYSLNFQKPKSSIGLIITATQIEDSAVYFCAMRDYNQGKLIFGQGTKLSIKP
chain 2: EAAVTQSPRSKVAVTGGKVTLSCHQTNNHDYMYWYRQDTGHGLRLIHYSYVADSTEKGDIPDGYKASRPSQENFSLILELASLSQTAVYFCASSGTAANSDYTFGSGTRLLVI
chain 3: not shown
chain 4: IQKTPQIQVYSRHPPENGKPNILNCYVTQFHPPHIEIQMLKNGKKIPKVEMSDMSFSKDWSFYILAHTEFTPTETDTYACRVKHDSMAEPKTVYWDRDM
chain 5: SIINFEKL

# Variants of: B1
# ASSAY_PROCEDURE: % of reporter cells activated (NFAT-GFP), raw; further: test concentration or dose not given here
# SETUP_CONDITIONS: with H6; scale: % of reporter cells activated
QUANTITY_KIND: ratio to parent
Respond with the number and no other words.

stdin: Give me measured ratio to parent, please, for this variant: chain 5 E6V
stdout: 0.0536

stdin: Give me measured ratio to parent, please, for this variant: chain 5 I3G
stdout: 0.962

stdin: Give me measured ratio to parent, please, for this variant: chain 5 S1T
stdout: 0.524

stdin: Give me measured ratio to parent, please, for this variant: chain 5 K7Q
stdout: 0.102

stdin: Give me measured ratio to parent, please, for this variant: chain 5 E6Q
stdout: 0.0813

stdin: Give me measured ratio to parent, please, for this variant: chain 5 F5E
stdout: 0.163

stdin: Give me measured ratio to parent, please, for this variant: chain 5 E6F
stdout: 0.11

stdin: Give me measured ratio to parent, please, for this variant: chain 5 F5Q
stdout: 0.495

stdin: Give me measured ratio to parent, please, for this variant: chain 5 N4K
stdout: 0.126

stdin: Give me measured ratio to parent, please, for this variant: chain 5 I2C
stdout: 1.27

stdin: Give me measured ratio to parent, please, for this variant: chain 5 I2D
stdout: 1.01

stdin: Give me measured ratio to parent, please, for this variant: chain 5 N4Y
stdout: 0.358

stdin: Give me measured ratio to parent, please, for this variant: chain 5 I2W
stdout: 0.585

stdin: Give me measured ratio to parent, please, for this variant: chain 5 I3C
stdout: 1.57

stdin: Give me measured ratio to parent, please, for this variant: chain 5 E6M
stdout: 0.0896

stdin: Give me measured ratio to parent, please, for this variant: chain 5 N4I
stdout: 0.116

stdin: Give me measured ratio to parent, please, for this variant: chain 5 K7V
stdout: 0.261

stdin: Give me measured ratio to parent, please, for this variant: chain 5 N4G
stdout: 0.445

stdin: Give me measured ratio to parent, please, for this variant: chain 5 L8Q
stdout: 0.131

stdin: Give me measured ratio to parent, please, for this variant: chain 5 K7G
stdout: 0.072

stdin: Give me measured ratio to parent, please, for this variant: chain 5 S1H
stdout: 0.446

stdin: Give me measured ratio to parent, please, for this variant: chain 5 E6L
stdout: 0.0813

stdin: Give me measured ratio to parent, please, for this variant: chain 5 F5Y
stdout: 0.516

stdin: Give me measured ratio to parent, please, for this variant: chain 5 I3P
stdout: 1.18

stdin: Give me measured ratio to parent, please, for this variant: chain 5 I2K
stdout: 0.24

stdin: Give me measured ratio to parent, please, for this variant: chain 5 S1F
stdout: 0.276

stdin: Give me measured ratio to parent, please, for this variant: chain 5 I3R
stdout: 0.295

stdin: Give me measured ratio to parent, please, for this variant: chain 5 I3L
stdout: 1.02

stdin: Give me measured ratio to parent, please, for this variant: chain 5 E6W
stdout: 0.084

stdin: Give me measured ratio to parent, please, for this variant: chain 5 E6S
stdout: 0.107

stdin: Give me measured ratio to parent, please, for this variant: chain 5 N4H
stdout: 0.91

stdin: Give me measured ratio to parent, please, for this variant: chain 5 I3H
stdout: 0.61

stdin: Give me measured ratio to parent, please, for this variant: chain 5 S1R
stdout: 0.333

stdin: Give me measured ratio to parent, please, for this variant: chain 5 L8P
stdout: 0.26

stdin: Give me measured ratio to parent, please, for this variant: chain 5 S1I
stdout: 0.338

stdin: Give me measured ratio to parent, please, for this variant: chain 5 K7D
stdout: 0.0822

stdin: Give me measured ratio to parent, please, for this variant: chain 5 K7S
stdout: 0.0877

stdin: Give me measured ratio to parent, please, for this variant: chain 5 E6P
stdout: 0.0822

stdin: Give me measured ratio to parent, please, for this variant: chain 5 F5M
stdout: 1.14

stdin: Give me measured ratio to parent, please, for this variant: chain 5 I2M
stdout: 0.624

stdin: Give me measured ratio to parent, please, for this variant: chain 5 K7P
stdout: 0.11

stdin: Give me measured ratio to parent, please, for this variant: chain 5 I3D
stdout: 0.149

stdin: Give me measured ratio to parent, please, for this variant: chain 5 N4Q
stdout: 0.117

stdin: Give me measured ratio to parent, please, for this variant: chain 5 I2P
stdout: 0.351

stdin: Give me measured ratio to parent, please, for this variant: chain 5 F5G
stdout: 0.381

stdin: Give me measured ratio to parent, please, for this variant: chain 5 E6T
stdout: 0.0942
